Reference source for all entries: patent US6870028B1

Tested on: human mammary carcinoma MCF7 cells
measurement.protocol: antimitotic activity, percentage of mitotic cells in chromosome spreads
Format: cell-based
stated.conditions: Homo sapiens, 20 h treatment, read-out: IC50 Values cell mitosis
measured.property: IC50
Report field: quantity (unit follows the number).

Example compounds with recorded IC50:
CN[C@H](C(=O)N[C@H](C(=O)N(C)[C@H](/C=C(\C)C(=O)OC)C(C)C)C(C)(C)C)C(C)(C)c1cn(C)c2ccccc12 = 0.216 ng/mL
CN[C@H](C(=O)N[C@H](C(=O)N(C)[C@H](/C=C(\C)C(=O)O)C(C)C)C(C)C)C(C)(C)c1c[nH]c2ccccc12 = 9.96 ng/mL
CN[C@H](C(=O)N[C@H](C(=O)N(C)[C@H](CC(C)C(=O)O)C(C)C)C(C)(C)C)C(C)(C)c1cn(C)c2ccccc12 (some centres unmarked) = 1.06 ng/mL

Give IC50 for each listed item.
1. CN[C@H](C(=O)N[C@H](C(=O)N(C)[C@H](/C=C(\C)C(=O)O)C(C)C)C(C)(C)C)C(C)(C)c1c[nH]c2ccccc12
2. CN[C@H](C(=O)N[C@H](C(=O)N(C)[C@H](/C=C(\C)C(=O)O)C(C)C)C(C)(C)C)C(C)(C)c1cn(C)c2ccccc12

1. 1.02 ng/mL
2. 0.158 ng/mL
